- target-or-test-system: T1, human GLP-1 receptor (human, UniProt P43220 24-463)
- T1 construct: whole, on cells; Used as purified plasma membranes of the stably transfected BHK cell line, not as intact cells; also called hGLP-1
- experiment: SPA, displacement of 125I-GLP-1(7-36)NH2 from hGLP-1R BHK membranes, high HSA (2.0%)
Numbered stars: 1 amine (or outer) side, 2 acyl side, 3 side chain; on linkers, the order of the positions; unused ones are H or OH. Square brackets hold non-standard residues; d marks the D form. Side chains are listed from the residue outwards. Ends that are not written are not given here. * marks the point of attachment. Decanoyl(10-(4-HOOC-PhO)) = O=C(O)c1ccc(OCCCCCCCCCC(=O)*)cc1; γGlu = O=C(O)[C@H](CCC(=O)[*:2])N[*:1]; C14 diacid = O=C(O)CCCCCCCCCCCCC(=O)*; AEEA = NCCOCCOCC(=O)O; Aib = CC(C)(N)C(=O)O
readout-label: IC50 (nM)
Give the number; nM is assumed, so skip it.

HAEGTFTSDVSSYLEEQAARK([AEEA-AEEA-γGlu-Decanoyl(10-(4-HOOC-PhO))])FIEWLVRGK([AEEA-AEEA-γGlu-Decanoyl(10-(4-HOOC-PhO))])GEG
320

-- ask Input H[Aib]EGTK([AEEA-AEEA-γGlu-C14 diacid])TSDVSSYLEEQAARK([AEEA-AEEA-γGlu-C14 diacid])FIAHLVQGRG (also called 18) , output reported IC50.
-- reply 789

-- ask Determine its reported IC50: HAEGTFTSDVSSYLEGQAVRK([AEEA-AEEA-γGlu-C14 diacid])FIAHLVQGRK([AEEA-AEEA-γGlu-C14 diacid]) (also called 16)
-- reply 25
